Biological target: human GPR40 (Homo sapiens)
Construct: expressed in transfected cells
Sequence (O14842 whole entry): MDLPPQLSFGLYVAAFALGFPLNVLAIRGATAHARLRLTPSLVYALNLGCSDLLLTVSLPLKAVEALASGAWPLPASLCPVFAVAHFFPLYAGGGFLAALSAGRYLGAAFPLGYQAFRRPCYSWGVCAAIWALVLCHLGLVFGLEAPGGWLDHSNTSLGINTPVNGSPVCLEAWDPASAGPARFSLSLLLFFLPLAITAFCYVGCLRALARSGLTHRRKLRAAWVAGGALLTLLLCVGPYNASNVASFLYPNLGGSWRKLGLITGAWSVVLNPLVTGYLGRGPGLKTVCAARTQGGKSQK
Experiment: Inositol Phosphate Turnover (IP1) Assay
Type: cell-based
Conditions: HEK cells stably expressing human GPR40; CisBio IP-One kit; 60 minutes at 37 degrees; read-out: Human IP1 EC50
Consider the following molecules; for each one, report its log10 of EC50.
Recall that a logarithmic scale is used here: each number is log10 of EC50 in nM.

Data point: C[C@H](C(=O)O)[C@H](c1ccc2c(c1)OC1(CC2)CCN(Cc2cn(C)nc2C(F)(F)F)CC1)C1CC1 [Example 72] ; log10 of EC50 = 3.00

Data point: CC(c1cc(C2CC2)ccc1C(F)(F)F)N1CCC2(CCc3ccc([C@H](C4CC4)[C@H](C)C(=O)O)cc3O2)CC1 (single isomer, unassigned) [Example 57] ; log10 of EC50 = 0.15

Data point: Cc1nc(C(F)(F)F)c(CN2CCC3(CCc4ccc([C@H](C5CC5)[C@H](C)C(=O)O)cc4O3)CC2)s1 [Example 53] ; log10 of EC50 = 2.03

Data point: C[C@H](C(=O)O)[C@H](c1ccc2c(c1)OC1(CC2)CC(NCc2cc(C(F)(F)F)ccc2C(F)(F)F)C1)C1CC1 (single isomer, unassigned) [Example 95] ; log10 of EC50 = 1.69

Data point: CCC(c1cc(C(F)(F)F)cc(Cl)c1F)N1CCC2(CCc3ccc([C@H](C4CC4)[C@H](C)C(=O)O)cc3O2)CC1 (stereo partly drawn) [Example 109] ; log10 of EC50 = 0.40

Data point: C[C@H](C(=O)O)[C@H](c1ccc2c(c1)OC1(CC2)CCC(Nc2cc(C(F)(F)F)ccc2C(F)(F)F)CC1)C1CC1 (single isomer, unassigned) [Example 64] ; log10 of EC50 = 1.45

Data point: C[C@H](C(=O)O)[C@H](c1ccc2c(c1)OC1(CC2)CCN(c2ccnc(C(F)(F)F)c2)CC1)C1CC1 [Example 40] ; log10 of EC50 = 2.22

Data point: CCC(c1cc(C(F)(F)F)ccc1C(F)(F)F)N1CCC2(CCc3ccc([C@H](C4CC4)[C@H](C)C(=O)O)cc3O2)CC1 (stereo in doubt) [Example 9] ; log10 of EC50 = -0.14

Data point: C[C@H](C(=O)O)[C@H](c1ccc2c(c1)OC1(CC2)CCN(c2cc(C(F)(F)F)ccc2C(F)(F)F)CC1)C1CC1 [Example 59] ; log10 of EC50 = 0.52

Data point: CCc1[nH]c(C(=O)O)cc1-c1ccc(OC(F)(F)F)c(C(C)N2CCC3(CCc4ccc([C@H](C5CC5)[C@H](C)C(=O)O)cc4O3)CC2)c1 (single isomer, unassigned) [Example 120] ; log10 of EC50 = 2.70

Data point: C[C@H](C(=O)O)[C@H](c1ccc2c(c1)OC1(CCCN(Cc3cc(C(F)(F)F)ccc3C(F)(F)F)CC1)CC2)C1CC1 (single isomer, unassigned) [Example 47] ; log10 of EC50 = 0.42

Data point: C[C@H](C(=O)O)[C@H](c1ccc2c(c1)OC1(CC2)CCN(c2cncc(C(F)(F)F)c2)CC1)C1CC1 [Example 39] ; log10 of EC50 = 2.75

Data point: CC(c1cc(OC(F)(F)F)ccc1F)N1CCC2(CCc3ccc([C@H](C4CC4)[C@H](C)C(=O)O)cc3O2)CC1 (mixture of isomers) [Example 29] ; log10 of EC50 = 2.06

Data point: CC[C@@H](c1cc(C(F)(F)F)ccc1C(F)(F)F)N1CCC2(CCc3ccc([C@H](C4CC4)[C@H](C)C(=O)O)cc3O2)CC1 [Example 7] ; log10 of EC50 = 0.33

Data point: C[C@H](C(=O)O)[C@H](c1ccc2c(c1)OC1(CC2)CC(Nc2ncccc2C(F)(F)F)C1)C1CC1 (single isomer, unassigned) [Example 88] ; log10 of EC50 = 1.76

Data point: C[C@H](C(=O)O)[C@H](c1ccc2c(c1)OC1(CC2)CCN(Cc2cc(C3CC3)ccc2OC(F)(F)F)CC1)C1CC1 [Example 76] ; log10 of EC50 = 1.07

Data point: CC(c1cc(C(F)(F)F)ccc1C1CC1)N1CCC2(CCc3ccc([C@H](C4CC4)[C@H](C)C(=O)O)cc3O2)CC1 (single isomer, unassigned) [Example 13] ; log10 of EC50 = 0.56

Data point: C[C@H](C(=O)O)[C@H](c1ccc2c(c1)OC1(CC2)CCN(S(=O)(=O)c2cc(C(F)(F)F)ccc2C(F)(F)F)CC1)C1CC1 [Example 23] ; log10 of EC50 = 1.16

Data point: CC(c1cc(C(F)(F)F)ccc1C1CC1)N1CCC2(CCc3ccc([C@H](C4CC4)[C@H](C)C(=O)O)c(F)c3O2)CC1 (single isomer, unassigned) [Example 14] ; log10 of EC50 = 1.56

Data point: C[C@H](C(=O)O)[C@H](c1ccc2c(c1)OC1(CCCN([C@@H](C)c3cc(C(F)(F)F)ccc3C(F)(F)F)C1)CC2)C1CC1 (single isomer, unassigned) [Example 75] ; log10 of EC50 = -0.43

Data point: CC(c1ncccc1C(F)(F)F)N1CCC2(CCc3ccc([C@H](C4CC4)[C@H](C)C(=O)O)cc3O2)CC1 (single isomer, unassigned) [Example 44] ; log10 of EC50 = 2.49

Data point: CC(c1cc(C(F)(F)F)cc(C(F)(F)F)c1)N1CCC2(CCc3ccc([C@H](C4CC4)[C@H](C)C(=O)O)cc3O2)CC1 (stereo partly drawn) [Example 54] ; log10 of EC50 = 0.81

Data point: CC(c1cc(Cl)ccc1OCC(F)(F)F)N1CCC2(CCc3ccc([C@H](C4CC4)[C@H](C)C(=O)O)cc3O2)CC1 (single isomer, unassigned) [Example 62] ; log10 of EC50 = 2.59

Data point: COc1ncc(C(F)(F)F)cc1C(C)N1CCC2(CCc3ccc([C@H](C4CC4)[C@H](C)C(=O)O)cc3O2)CC1 (single isomer, unassigned) [Example 103] ; log10 of EC50 = 2.15

This collection of values is drawn from patent US10968232B2.
